# Subject of test: T1, CD25 (Homo sapiens (Human), UniProt P01589 22-240)
# T1 construct: also called IL-2R alpha chain
# T1 sequence: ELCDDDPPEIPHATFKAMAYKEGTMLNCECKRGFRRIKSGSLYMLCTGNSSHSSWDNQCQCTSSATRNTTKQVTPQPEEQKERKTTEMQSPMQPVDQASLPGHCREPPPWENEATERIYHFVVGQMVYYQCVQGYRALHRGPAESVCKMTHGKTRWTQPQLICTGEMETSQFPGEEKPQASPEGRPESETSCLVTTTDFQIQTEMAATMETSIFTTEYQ
# Test details: ELISA, CD25 coated at 0.5 µg/mL, detection with biotinylated anti-IL-2 polyclonal
# Procedure: An immunosorbent plate was coated with CD25 at a concentration of 0.5 μg/mL in PBS pH 7.4, 75 μL/well, and incubated overnight at 4° C. Wells were washed with PBS pH 7.4 containing 0.05% Tween-20 (wash buffer) three times, and then blocked with 200 μL/well 1% BSA in PBS pH 7.4 (block buffer) for two hours at room temperature. […] OD 450 nm was measured. […]
Quantity measured: EC50

Q: May I ask what EC50 has been recorded for SEQ ID NO 53 (Fc fusion, also called IL-2 L53I N88D V69A, Q74P,C125S-G4Sx4-Fc) APTSSSTKKTQLQLEHLLLDLQMILNGINNYKNPKLTRMLTFKFYMPKKATEIKHLQCLEEELKPLEEALNLAPSKNFHLRPRDLISDINVIVLELKGSETTFMCEYADETATIVEFLNRWITFSQSIISTLTGGGGSGGGGSGGGGSGGGGSDKTHTCPPCPAPEAAGAPSVFLFPPKPKDTLMISRTPEVTCVVVDVSHEDPEVKFNWYVDGVEVHNAKTKPREEQYNSTYRVVSVLTVLHQDWLNGKEYKCKVSNKALPAPIEKTISKAKGQPREPQVYTLPPSREEMTKNQVSLTCLVKGFYPSDIAVEWESNGQPENNYKTTPPVLDSDGSFFLYSKLTVDKSRWQQGNVFSCSVMHEALHNHYTQKSLSLSPG ?
A: < 1 nM
